# Tested on: MDA-MB-435
The reply should be one of these categories: 1.0 (active), 0.0 (inactive)

Example entries begin here.
INSERT INTO results (molecule, system_name, category_label) VALUES
  ('COc1ccc2c(c1)CC[C@@H]1[C@@H]2CC[C@@]2(C)[C@H]1CC1(CCCCC1)[C@@H]2O', 'MDA-MB-435', 0.0),
  ('COc1cnc2c(c1)C(=O)c1c-2n(CCCn2ccnc2)c(=O)c2cc(Cl)ccc12', 'MDA-MB-435', 1.0),
  ('CCc1c2c(nc3cc4c(cc13)OCO4)-c1cc3c(c(=O)n1C2)COC(=O)[C@@]3(CC)OC(=O)CN', 'MDA-MB-435', 1.0);

**Query** Hi, do you know how O=C(Nc1cc(C(F)(F)F)ccc1F)Nc1n[nH]c2ccccc12 came out in this test?
**Result** 0.0

**Query** Hi, do you know how C=CC1CC12C(=O)C1OC2(C)C2C(=O)c3c(ccc4c3ccc3ccccc34)C(=O)C12 (centres undefined) came out in this test?
**Result** 0.0
